- System: HepG2
- experimental protocol: cytotoxicity call (relative viability < 0.9)
- experimental parameters: 10 µM
Among all 39,000 compounds or so, about 3,300 (8.5%) were called active. This is one part of a sample in which actives are shown more often than they occur.
measured property: cytotoxicity call

Known cytotoxicity call results, listed for orientation:
# smiles structure, cytotoxicity call
data = [
    ("COc1ccc(S(=O)(=O)Nc2ccc3c(c2)C(=O)N([C@@H](C)CO)C[C@@H](C)[C@H](CN(C)S(=O)(=O)c2ccc(OC)cc2)O3)cc1", "inactive"),
    ("Cc1noc(C)c1S(=O)(=O)Nc1ccc2c(c1)C(=O)N([C@H](C)CO)C[C@H](C)[C@H](CN(C)C(=O)Nc1ccc(F)cc1)OCCCC[C@H](C)O2", "inactive"),
    ("CC(C)NC(=O)N(C)C[C@H]1Oc2ccc(NC(=O)c3ccncc3)cc2CC(=O)N([C@@H](C)CO)C[C@H]1C", "inactive"),
    ("O=C(C[C@H]1C=C[C@@H](NC(=O)C2CC2)[C@@H](CO)O1)NCCCN1CCOCC1", "inactive"),
    ("C[C@@H]1CCCCO[C@H](CN(C)C(=O)C2CCCCC2)[C@H](C)CN([C@@H](C)CO)C(=O)c2cc(NC(=O)Nc3ccc4c(c3)OCO4)ccc2O1", "inactive"),
]

Would you mind listing cytotoxicity call for each of the following compounds?
1. Cc1ccc(S(=O)(=O)Nc2ccc3c(c2)C(=O)N(C)[C@H]2CC[C@@H](CC(=O)NCCc4ccncc4)O[C@@H]2CO3)cc1
2. COCC(=O)N1C[C@H](C)[C@H](OC)CN(C)C(=O)c2ccc(NC(=O)c3ccc(OC)cc3)cc2OC[C@H]1C

Completion:
1. inactive
2. inactive
